Molecular target: T1, GST-Egl512-819 (Drosophila melanogaster, UniProt Q9W1K4 512-819)
T1 sequence: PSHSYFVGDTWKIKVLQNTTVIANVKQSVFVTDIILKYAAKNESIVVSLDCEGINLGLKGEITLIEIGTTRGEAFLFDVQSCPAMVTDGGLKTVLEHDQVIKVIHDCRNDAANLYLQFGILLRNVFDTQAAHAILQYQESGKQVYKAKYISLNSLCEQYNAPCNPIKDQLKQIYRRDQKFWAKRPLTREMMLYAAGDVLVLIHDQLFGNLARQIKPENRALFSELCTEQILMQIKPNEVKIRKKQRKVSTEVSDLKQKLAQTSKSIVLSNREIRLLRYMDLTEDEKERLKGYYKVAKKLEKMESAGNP
Experiment: competition; vs FAM-K10 TLS; FA: 20 mM HEPES-NaOH pH 7.5, 100 mM NaCl, 10% glycerol, 20 C, 10 nM FAM-RNA; competition: 150 nM Egl512-819 + 10 nM FAM-K10 TLS, same buffer
Details: protein: recombinant; tags: N-terminal GST (TEV site); label: 5'-FAM in direct assay; hairpin
Property Name: IC50 (nM)
// note: answer is a bare numeric in nM

Problem: Give its IC50 value. Item: bcd_VbL (structured_RNA) RNA: GGGCCCAAAAUGAAAAAUGUUUCUCUUGGGCGUAAUCUCAUACAAUGAUUACCCUUAAAGAUCGAACAUUUAAACAAUAAUAUUUGGG
Solution: 31
